experimental_target: human liver GK (Homo sapiens, UniProt P35557)
Construct: GST (glutathione S-transferase) (N)
Sequence (P35557 1-466 isoform P35557-2): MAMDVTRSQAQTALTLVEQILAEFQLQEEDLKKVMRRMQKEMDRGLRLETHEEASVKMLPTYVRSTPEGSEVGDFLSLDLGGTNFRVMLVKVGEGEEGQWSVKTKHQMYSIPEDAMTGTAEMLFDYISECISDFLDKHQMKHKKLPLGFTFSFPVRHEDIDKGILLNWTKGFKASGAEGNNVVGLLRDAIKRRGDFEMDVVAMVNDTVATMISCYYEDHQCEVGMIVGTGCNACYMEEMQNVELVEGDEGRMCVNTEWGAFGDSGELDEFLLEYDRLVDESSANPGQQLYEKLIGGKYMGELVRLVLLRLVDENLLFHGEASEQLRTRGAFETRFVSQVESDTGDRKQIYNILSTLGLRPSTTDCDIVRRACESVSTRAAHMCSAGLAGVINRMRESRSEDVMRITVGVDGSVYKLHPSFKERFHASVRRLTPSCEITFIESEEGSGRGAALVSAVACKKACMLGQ
protocol_notes: GK activation test
run_parameters: test compound concentration needed to activate 50% of maximum activation ability; 4 mM 14C-labeled glucose, 2 mM ATP, room temperature, 20 minutes
Parameter EC50: see the listing below.

For record O=c1[nH]c(C(Oc2ccc(F)cc2F)c2ccc(S(=O)(=O)C3CC3)cc2)ccc1C1CC1 (stereo not drawn) the listed EC50 is 10 to 500 nM

For record CSc1ccc(/C(=C\C2CCOCC2)c2ccc(C)c(=O)[nH]2)cc1Cl the listed EC50 is 500 to 3000 nM

###

experimental_target: human liver GK (Homo sapiens, UniProt P35557)
Construct: GST (glutathione S-transferase) (N)
protocol_notes: GK activation test
run_parameters: test compound concentration needed to activate 50% of maximum activation ability; 4 mM 14C-labeled glucose, 2 mM ATP, room temperature, 20 minutes
pEC50: −log10 of the molar value.
outcome_measure: pEC50

Before answering, review these 6 worked examples.
{"columns": ["compound", "pEC50"],
 "data": [
  ["CC(C)(C)c1ccc(/C(=C\\CN2C(=O)CCC2=O)c2ccc(Cl)c(=O)[nH]2)cc1", "5.52 to 6.30"],
  ["O=C1CC[C@H](/C=C(\\c2ccc(Cl)nc2)c2ccc(C3CC3)c(=O)[nH]2)N1", "5.52 to 6.30"],
  ["CC(=O)N1CCC(/C=C(\\c2ccc(S(C)(=O)=O)cc2)c2ccc(C3CC3)c(=O)[nH]2)CC1", "5.00 to 5.52"],
  ["CC(C)(C)c1ccc(/C(=C\\CO)c2ccc(Cl)c(=O)[nH]2)cc1", "5.00 to 5.52"],
  ["CC(C)Oc1ccc(/C(=C/[C@H]2CCC(=O)N2)c2ccc(C(C)(C)C)cc2)[nH]c1=O", "5.52 to 6.30"],
  ["CC(C)(C)c1ccc(C(C[C@H]2CCN(C(=O)C3CC3)C2)c2ccc(Cl)c(=O)[nH]2)cc1 (single isomer, unassigned) [Example 4-97]", "5.00 to 5.52"]
]}

Now for a further compound.
For record CCN(CC)CCCOc1ccc(/C(=C\[C@H]2CCC(=O)N2)c2ccc(C3CC3)c(=O)[nH]2)cc1 the listed pEC50 is 5.52 to 6.30
